Provenance of the data: ChEMBL document CHEMBL5543175

biological target: Protein cereblon/Tyrosine-protein phosphatase non-receptor type 1 (Homo sapiens, UniProt P18031+Q96SW2); experiment: PROTAC activity at PTP1B/CRBN in insulin treated human HepG2 cells assessed as protein degradation at 50 nM incubated for 48 hrs by Western blot analysis relative to control; format: cell-based
Sequence (P18031 whole entry, looked up): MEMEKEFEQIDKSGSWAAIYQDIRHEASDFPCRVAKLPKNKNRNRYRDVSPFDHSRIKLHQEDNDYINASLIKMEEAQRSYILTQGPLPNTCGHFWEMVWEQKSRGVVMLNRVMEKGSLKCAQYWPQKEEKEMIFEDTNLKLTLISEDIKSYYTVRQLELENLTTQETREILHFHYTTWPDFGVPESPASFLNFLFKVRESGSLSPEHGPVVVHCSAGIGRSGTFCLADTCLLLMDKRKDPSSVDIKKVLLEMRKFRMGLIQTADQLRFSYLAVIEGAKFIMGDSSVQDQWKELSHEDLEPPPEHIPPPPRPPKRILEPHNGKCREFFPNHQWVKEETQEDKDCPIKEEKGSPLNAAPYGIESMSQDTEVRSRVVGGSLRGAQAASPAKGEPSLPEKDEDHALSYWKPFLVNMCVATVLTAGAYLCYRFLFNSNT
Sequence (Q96SW2 whole entry, looked up): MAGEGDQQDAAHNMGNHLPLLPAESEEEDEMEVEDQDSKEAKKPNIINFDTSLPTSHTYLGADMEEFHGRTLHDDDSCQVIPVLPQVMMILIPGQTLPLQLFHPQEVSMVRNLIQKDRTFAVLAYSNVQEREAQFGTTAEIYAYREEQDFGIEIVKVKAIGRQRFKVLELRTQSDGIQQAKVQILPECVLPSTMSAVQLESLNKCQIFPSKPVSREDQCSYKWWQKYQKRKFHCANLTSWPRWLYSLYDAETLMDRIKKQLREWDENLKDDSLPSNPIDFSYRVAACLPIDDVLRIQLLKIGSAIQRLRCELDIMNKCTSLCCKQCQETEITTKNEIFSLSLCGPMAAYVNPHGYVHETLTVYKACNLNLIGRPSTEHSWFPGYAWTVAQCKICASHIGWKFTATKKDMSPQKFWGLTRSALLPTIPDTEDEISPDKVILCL
endpoint: Activity (%)

>>> measurement("C[C@H]1[C@H](C)CC[C@]2(C(=O)NCCCCCCOCCOCCCCCC(=O)Nc3cccc4c3C(=O)N(C3CCC(=O)NC3=O)C4=O)CC[C@]3(C)C(=CC[C@@H]4[C@@]5(C)CC[C@H](O)C(C)(C)[C@@H]5CC[C@]43C)[C@H]12 (stereo partly drawn)")
47
>>> measurement("O=C1CCC(N2C(=O)c3cccc(NC(=O)COCCOCCCCCCNC(=O)c4cccc(NC(=O)CSc5nc6ccccc6[nH]5)c4)c3C2=O)C(=O)N1 (stereo not drawn)")
69
>>> measurement("C[C@H]1[C@H](C)CC[C@]2(C(=O)NCCCCCCNc3cccc4c3C(=O)N(C3CCC(=O)NC3=O)C4=O)CC[C@]3(C)C(=CC[C@@H]4[C@@]5(C)CC[C@H](O)C(C)(C)[C@@H]5CC[C@]43C)[C@H]12 (stereo partly drawn)")
67
>>> measurement("CC1(C)CC[C@]2(C(=O)NCCCOCCOCCOCCCNc3cccc4c3C(=O)N(C3CCC(=O)NC3=O)C4=O)CC[C@]3(C)C(=CC[C@@H]4[C@@]5(C)CC[C@H](O)C(C)(C)[C@@H]5CC[C@]43C)[C@@H]2C1 (stereo partly drawn)")
61
>>> measurement("C[C@H]1[C@H](C)CC[C@]2(C(=O)NCCCCCCOCCOCCOCC(=O)Nc3cccc4c3C(=O)N(C3CCC(=O)NC3=O)C4=O)CC[C@]3(C)C(=CC[C@@H]4[C@@]5(C)CC[C@H](O)C(C)(C)[C@@H]5CC[C@]43C)[C@H]12 (stereo partly drawn)")
46
>>> measurement("C[C@H]1[C@H](C)CC[C@]2(C(=O)NCCCOCCCCOCCCNc3cccc4c3C(=O)N(C3CCC(=O)NC3=O)C4=O)CC[C@]3(C)C(=CC[C@@H]4[C@@]5(C)CC[C@H](O)C(C)(C)C5CC[C@]43C)[C@H]12 (stereo partly drawn)")
65
